Exercise: state measured growth inhibition for each of the compounds provided.
Assay: NCI Yeast Anticancer Drug Screen. Data for the mec2-1 strain (AID 157)
Details: S. cerevisiae mec2-1 strain, at 50.0 µM, stronger effect = higher value
About 79,000 compounds went through this panel and 15% of them were active in at least one assay; those are over-represented in the sample as a whole.
Output spec: scalar in %, unitless text.

(Q) # input compound: CC(C)NC(=O)CS(=O)(=O)c1ccc(N)cc1 ; wanted: its growth inhibition
(A) -11.8

(Q) Note, next up: O=C(N/N=C/C=C/c1ccccc1)NNC(=O)c1cc([N+](=O)[O-])cc([N+](=O)[O-])c1
(A) 10.8

(Q) Note, next up: COc1cc2c(cc1OC)C(=O)C(C1=C(SC(=N)N)C(=O)c3cc(OC)c(OC)cc31)C2 (centres undefined)
(A) -21.9

(Q) Note, next up: CNc1nc2c(C)ccc3[nH]c(NC)nc3c-2n1
(A) -25.1

(Q) Note, next up: COC(=O)c1ccccc1C1CN=NC12Cc1ccc3c(c1C2=O)CCC3 (centres undefined)
(A) -3.55

(Q) Note, next up: CN(C)S(=O)(=O)c1ccc(NC(=O)OC(C)(c2ccccc2)C2CCCCC2)cc1 (centres undefined)
(A) 2

(Q) Note, next up: O=S(=O)(O)Cc1ccccc1
(A) -21.9

(Q) Note, next up: CCNC(=O)C1C2C=CC(C2)C1C(=O)NCC (centres undefined)
(A) -9.6

(Q) Note, next up: Cc1cc(C)cc(NC(=O)CCC(=O)C2CCC/C2=N\NC(=O)C(=O)NN)c1 (centres undefined)
(A) -2.7

(Q) Note, next up: CC(C)(C)NC(=O)c1cccc(C(=O)NC(C)(C)C)n1
(A) -8

(Q) Note, next up: COC1OC2COC(c3ccccc3)OC2C2C1N2C(=S)SC (centres undefined)
(A) 1.7

(Q) Note, next up: N#CCCC(CC#N)C1([N+](=O)[O-])CCCCC1 (centres undefined)
(A) 29.2

(Q) Note, next up: C[CH2][Ge]([CH2]C)([CH2]C)[O]C(=O)CCC(=O)[O][Ge]([CH2]C)([CH2]C)[CH2]C
(A) -2.9

(Q) Note, next up: N#CCCCNc1ccccc1
(A) -15

(Q) Note, next up: O=S(=O)(O)c1cc2c3ccccc3ccc2c2ccccc12
(A) -5.35

(Q) Note, next up: CC(=O)NC(=O)CC(=O)c1ccccc1
(A) -12.8

(Q) Note, next up: CCCCCCC1NC(CCCCCC)N2C(CCCCCC)N12 (centres undefined)
(A) 16.8

(Q) Note, next up: Nc1nnnn1CCc1ccccc1
(A) 6.3

(Q) Note, next up: Clc1c2c(nc3ccccc13)CCCC2
(A) 50.9

(Q) Note, next up: C1CCC2(CCC34CCCCC3CCCC4)CCCCC2C1 (centres undefined)
(A) 99.7

(Q) Note, next up: CN(C)c1ccc(/C=C2\CCc3ccccc3C2=O)cc1Br
(A) -12.1

(Q) Note, next up: CC(=O)OCC1OC(OC(C)=O)C(N)C(OC(C)=O)C1OC(C)=O (centres undefined)
(A) 11.8

(Q) Note, next up: CN(C)C(=O)Nc1ccc(C#N)cc1
(A) 2.3

(Q) Note, next up: CC(=O)OC/C=C(\C)CC(/C=C(C)/C=C/C1=C(C)CCCC1(C)C)S(=O)(=O)c1ccccc1 (centres undefined)
(A) 9.4

(Q) Note, next up: O=[N+]([O-])c1cccc(/C=C/C=C/c2ccc(Cl)c(Cl)c2)c1
(A) 9.3

(Q) Note, next up: CC(=O)O[C@@H]1C[C@H](C)CC(C)(C)C1
(A) 5.75

(Q) Note, next up: Cc1ccc2c(c1)CCC(=O)O2
(A) 0

(Q) Note, next up: O=Nc1ccc(O)c2ncccc12
(A) -9.45

(Q) Note, next up: Clc1c(Cl)c(Cl)c(CSCc2c(Cl)c(Cl)c(Cl)c(Cl)c2Cl)c(Cl)c1Cl
(A) -7

(Q) Note, next up: O=C1CCCC1CC(CN1CCOCC1)Sc1nnnn1-c1ccccc1 (centres undefined)
(A) -3.5

(Q) Note, next up: Cc1ccc(S(=O)(=O)NC2(C=O)CCCC3CCCCC32)cc1 (centres undefined)
(A) 6

(Q) Note, next up: N#CCC(=O)NCCc1ccccn1
(A) -3.7

(Q) Note, next up: COC(=O)CCc1ccc(C2CO2)cc1 (centres undefined)
(A) 6.15

(Q) Note, next up: Oc1ccccc1/C=N/n1cnnc1
(A) 12.2

(Q) Note, next up: c1ccc(COc2ccc(OCc3ccccc3)cc2)cc1
(A) 3.8

(Q) Note, next up: CC(=O)Nc1ccc(NS(=O)(=O)c2ccc3nc(C)n(NS(=O)(=O)c4ccc(NC(C)=O)cc4)c(=O)c3c2)cc1
(A) 38

(Q) Note, next up: Nc1ncc2c(n1)-c1ccccc1OC2NC1CC1 (centres undefined)
(A) 12.1

(Q) Note, next up: N#Cc1c(O)cc(=O)n2c1[nH]c1ccccc12
(A) -24.3

(Q) Note, next up: CCCCCCCCN(CCCCCCCC)CC(O)c1ccc2c(c1)Sc1ccccc1O2 (centres undefined)
(A) 98.2

(Q) Note, next up: COc1ccc(OC)c(/C=C/c2ccc(NC(=O)C(Cl)(Cl)Cl)cc2)c1
(A) -3.8

(Q) Note, next up: Nc1nc(Cl)cc(Nc2cc(Cl)cc(Cl)c2)n1
(A) 53.6

(Q) Note, next up: CCOc1ccccc1C1=CCCCCC1
(A) -5

(Q) Note, next up: COc1ccc2cc(C(C)C(=O)N3C(=O)OCC3(C)C)ccc2c1 (centres undefined)
(A) -11.3

(Q) Note, next up: Cc1ccc(S(=O)(=O)C(C#N)CCC(=O)c2ccc(Cl)cc2)cc1 (centres undefined)
(A) 3.55

(Q) Note, next up: CCOC(=O)Cc1nnc2n(-c3ccccc3)c(=O)c3ccccc3n12
(A) -15.3

(Q) Note, next up: c1ccc(C(=C2CCC2)c2c3ccccc3cc3ccccc23)cc1
(A) 9.4

(Q) Note, next up: COc1cccc(C(=O)NNC(=O)c2cccc(OC)c2)c1
(A) -15.9

(Q) Note, next up: CC(C)(C)c1ccc(O)c(CNCCO)c1
(A) -6.65

(Q) Note, next up: CCOC(=O)c1nc2ccccc2nc1Nc1ccc(F)cc1
(A) -7.5

* * *

Test: NCI Yeast Anticancer Drug Screen. Data for the mlh1 rad18 strain (AID 175)
Conditions: S. cerevisiae mlh1 rad18 strain growth inhibition; at 50.0 µM; stronger effect = higher value
About 79,000 compounds went through this panel and 15% of them were active in at least one assay; those are over-represented in the sample as a whole.
growth inhibition of 10% or higher: 1. Under 10%: 0.

(Q) Could you tell me if the measured growth inhibition of CC1(C)C(=O)NC(=O)N1CO reaches 10% or more?
(A) 1

(Q) Note, next up: Cc1ccc(CCC=O)cc1
(A) 1

(Q) Note, next up: CCCCS/C=C1\CC2OC(=O)C3(C)CCCC(C)(C1=O)C23 (stereo not drawn)
(A) 1

(Q) Note, next up: CCCCOC(OCCCC)C(C)(C)CN(C)C
(A) 1

(Q) Note, next up: CCC1=C(C)C(=O)OC1n1ccc(=O)[nH]c1=O (stereo not drawn)
(A) 0

(Q) Note, next up: Cc1cccc(C)c1NC(=O)CCC(=O)NC(N)=NC#N
(A) 0

(Q) Note, next up: N#CC1=C(N)C(c2ccccc2)(c2ccccc2)CC1
(A) 1

(Q) Note, next up: O=C(N/N=C/c1ccc(Cl)c([N+](=O)[O-])c1)C(O)(c1ccccc1)c1ccccc1
(A) 0

(Q) Note, next up: O=c1oc2ccccc2c2c1Sc1ccccc1N2
(A) 0

(Q) Note, next up: O=C(Oc1ccccc1)C(c1ccccc1)c1ccccc1
(A) 0

(Q) Note, next up: CSC1(C)CC2C(CC1N1CCCCC1)C2(C)C (stereo not drawn)
(A) 0

(Q) Note, next up: Cc1cc(Cl)ccc1NC(=O)CCCC(=O)C1CCC/C1=N\NC(=O)CC#N (stereo not drawn)
(A) 0

* * *

Exercise: state measured growth inhibition for each of the compounds provided.
Test: NCI Yeast Anticancer Drug Screen. Data for the sgs1 mgt1 strain (AID 161);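 also: 0% = growth of cultures given vehicle only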
Details: S. cerevisiae sgs1 mgt1 strain, at 50.0 µM, stronger effect = higher value
About 79,000 compounds went through this panel and 15% of them were active in at least one assay; those are over-represented in the sample as a whole.
Output spec: scalar in %, unitless text.

(Q) # input compound: COC1=C(O)C(=O)N(C)C(=O)C1 ; wanted: its growth inhibition
(A) 29.2

(Q) Note, next up: Cc1cccc(NC(=O)/C(=N\NC(C)(C)C)C2NC(=S)NC2=O)c1C (centres undefined)
(A) -38.5

(Q) Note, next up: CSc1c(C)n([O-])c2ccccc2[n+]1=O
(A) 8.85

(Q) Note, next up: CCOC(=O)C(CC(C)C)NC(=O)c1cnc2ccccc2c1 (centres undefined)
(A) 25.6

(Q) Note, next up: Cc1ccc(NC(=O)Oc2ccc(Br)cc2Br)c(Cl)c1
(A) 16.7

(Q) Note, next up: COC(=O)c1ccccc1NC(=O)Nc1ccc(F)c([N+](=O)[O-])c1
(A) 3.15

(Q) Note, next up: CCOC(=O)c1ccc(CSc2ccc(N)cc2)c([N+](=O)[O-])c1
(A) 17.4

(Q) Note, next up: Cc1ccc(S(=O)(=O)ON/N=c2\ccn(C)c3ccccc23)cc1
(A) 19.1

(Q) Note, next up: OCC(O)C(O)C(O)C(O)C(O)C(O)CO (centres undefined)
(A) 7.35

(Q) Note, next up: CCCCCC1c2cc(O)ccc2OC1N1CCOCC1 (centres undefined)
(A) 47.5

(Q) Note, next up: CCOC(=O)/C=C(/C)C#N
(A) -11.8

(Q) Note, next up: O=C(NCCNc1ccccc1)C12CC3CC(CC(C3)C1)C2
(A) -3.9

(Q) Note, next up: O=C(COc1c(Cl)c(Cl)c(Cl)c(Cl)c1Cl)Nc1cccc(Cl)c1
(A) 5.25

(Q) Note, next up: O=C(O)Cn1cc(I)c(=O)c(I)c1
(A) -7.2

(Q) Note, next up: Cn1ccc2c3ccn(C)c3ccc21
(A) -5.25

(Q) Note, next up: CCOC(=O)C1=C(O)c2ccc(OC)cc2C(=O)C1=O
(A) 12.7

(Q) Note, next up: C/C=C\CCCCCCCCCCCCCCCC
(A) -0.6

(Q) Note, next up: NC(=O)NC(=O)OCC(F)(F)C(F)(F)C(F)(F)C(F)(F)C(F)(F)C(F)(F)C(F)(F)F
(A) 31.4

(Q) Note, next up: CC(C)/C=N/N(CCOC(=O)Nc1cccc2ccccc12)C(=O)Nc1cccc2ccccc12
(A) 1.75

(Q) Note, next up: COc1cc2c(cc1OC)[C@H]1C(COC(=O)Nc3ccccc3)CN1CC2 (some centres undefined)
(A) -42.7

(Q) Note, next up: COC(=O)/C(=N/Nc1cccc(Cl)c1)C(C(=O)C(=O)Nc1cccc(Cl)c1C)c1nc2ccccc2nc1C (centres undefined)
(A) 42

(Q) Note, next up: c1ccc(Cc2[nH]nc(-c3ccccc3)c2N=Nc2ccccc2)cc1
(A) 2.65

(Q) Note, next up: CC(=O)OC1CCC2(C)C(CCC3C2CCC2(C)C3CC3OC(CCC(C)CO)C(C)C32)C1 (centres undefined)
(A) -0.45

(Q) Note, next up: CN(C)Cc1cc(C=O)cc(CN(C)C)c1O
(A) -29.2
